Entries annotated with measured Log Ki
- MEASUREMENT_DESCRIPTION: Inhibitory constant towards 5-hydroxytryptamine 2A receptor (5-HT2A)
The response must contain the number and no unit.

> print(dat)
                                   compound  readout.value
1  COc1cc2c(cc1OC)C(=O)CC(CN1CCC(c3noc4cc(F)ccc34)CC1)C2 (centres undefined)          -8.02

Now turn to the next compound.
Request: # lookup: Log Ki of COc1ccc2c(c1)C(=O)CC(CCN1CCC(c3noc4cc(F)ccc34)CC1)C2 (centres undefined)
Response: -8.23
